Molecular target: Epidermal growth factor receptor (Homo sapiens, UniProt P00533, L858R/T790M)
Sequence (P00533 25-1210 T790M/L858R limits assumed): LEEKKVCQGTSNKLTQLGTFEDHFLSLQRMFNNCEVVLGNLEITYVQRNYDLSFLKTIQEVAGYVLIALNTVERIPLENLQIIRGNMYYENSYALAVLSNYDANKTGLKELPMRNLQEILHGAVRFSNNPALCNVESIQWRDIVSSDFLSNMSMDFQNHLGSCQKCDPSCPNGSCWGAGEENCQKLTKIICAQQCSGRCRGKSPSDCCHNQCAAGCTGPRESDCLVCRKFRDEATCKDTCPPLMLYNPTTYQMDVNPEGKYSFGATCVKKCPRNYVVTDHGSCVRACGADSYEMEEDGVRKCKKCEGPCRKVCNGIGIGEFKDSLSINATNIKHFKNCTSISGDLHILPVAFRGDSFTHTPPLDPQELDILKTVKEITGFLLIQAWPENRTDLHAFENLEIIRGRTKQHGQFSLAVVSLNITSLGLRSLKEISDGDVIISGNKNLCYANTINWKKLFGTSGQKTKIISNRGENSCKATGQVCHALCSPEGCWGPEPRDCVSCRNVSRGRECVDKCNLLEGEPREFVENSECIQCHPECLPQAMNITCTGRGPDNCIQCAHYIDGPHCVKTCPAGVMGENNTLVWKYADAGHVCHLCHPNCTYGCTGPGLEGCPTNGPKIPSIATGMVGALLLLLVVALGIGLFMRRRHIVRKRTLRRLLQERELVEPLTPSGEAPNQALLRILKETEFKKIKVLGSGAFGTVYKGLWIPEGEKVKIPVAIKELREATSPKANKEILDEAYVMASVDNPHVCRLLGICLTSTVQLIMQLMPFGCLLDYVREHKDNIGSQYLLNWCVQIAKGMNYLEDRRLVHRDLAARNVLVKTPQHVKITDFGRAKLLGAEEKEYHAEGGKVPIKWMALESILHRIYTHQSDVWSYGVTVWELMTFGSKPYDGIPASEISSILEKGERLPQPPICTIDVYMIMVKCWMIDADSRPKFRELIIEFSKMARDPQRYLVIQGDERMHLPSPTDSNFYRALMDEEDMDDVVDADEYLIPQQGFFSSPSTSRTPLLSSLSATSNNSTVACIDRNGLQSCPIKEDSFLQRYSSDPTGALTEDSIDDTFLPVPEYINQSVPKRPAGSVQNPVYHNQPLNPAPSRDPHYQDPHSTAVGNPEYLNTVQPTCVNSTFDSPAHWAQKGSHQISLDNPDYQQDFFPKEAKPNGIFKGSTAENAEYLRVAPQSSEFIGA
Experiment: Inhibition of EGFR T790M/L858R double mutant (unknown origin) using Tyr 4 peptide as substrate after 1.5 hrs by FRET-based Z'-LYTE assay
Note that class boundaries on IC50 are LOW: < 0.006 µM; MID: ≥ 0.006 µM and < 3 µM; HIGH: ≥ 3 µM

Compound | Classification
COc1ccc(Nc2ncc3ncc(=O)n(-c4cccc(N)c4)c3n2)cc1 | HIGH

Band for C=CC(=O)Nc1ccc(Nc2ncc3ncc(=O)n(-c4ccc(OC)cc4)c3n2)cc1 ?
HIGH

Try C=CC(=O)Nc1ccc(-n2c(=O)cnc3cnc(Nc4ccc(N5CCOCC5)cc4)nc32)cc1 next.
HIGH

* * *

Target: Epidermal growth factor receptor (Homo sapiens)
Test: Inhibition of wild type EGFR (unknown origin) using Tyr 4 peptide as substrate after 1.5 hrs by FRET-based Z'-LYTE assay
Conditions: read-out: IC50
Consider the cut-off 10 nM. If the recorded IC50 is strictly smaller, the label is Y; if not, the label is N.

Compound | Classification
C=CC(=O)Nc1ccc(-n2c(=O)cnc3cnc(Nc4ccc(OC)cc4)nc32)cc1 | N
C=CC(=O)Nc1cccc(-n2c(=O)cnc3cnc(Nc4ccc(Cl)cc4)nc32)c1 | N
C=CC(=O)Nc1cccc(-n2c(=O)cnc3cnc(Nc4ccc(N5CCN(C)CC5)cc4)nc32)c1 | Y

Lab note: confirm whether the reported IC50 for this molecule is below 10 nM, equality not counting. molecule: COc1ccc(-n2c(=O)cnc3cnc(Nc4ccc(N)cc4)nc32)cc1
N

What do you get for C=CC(=O)Nc1ccc(-n2c(=O)cnc3cnc(Nc4ccc(N5CCN(C)CC5)cc4OC)nc32)cc1 ?
N

* * *

Biological target: Epidermal growth factor receptor (Homo sapiens, UniProt P00533, L858R/T790M)
Test: Inhibition of EGFR T790M/L858R double mutant (unknown origin) using Tyr 4 peptide as substrate after 1.5 hrs by FRET-based Z'-LYTE assay
Under this convention, 1 denotes IC50 strictly below 0.06 µM and 0 denotes IC50 at or above 0.06 µM.

Compound | Classification
C=CC(=O)Nc1ccc(-n2c(=O)cnc3cnc(Nc4ccc(OC)cc4)nc32)cc1 | 0
C=CC(=O)Nc1cccc(-n2c(=O)cnc3cnc(Nc4ccc(N5CCN(C)CC5)cc4)nc32)c1 | 1
C=CC(=O)Nc1ccc(-n2c(=O)cnc3cnc(Nc4ccc(Cl)cc4)nc32)cc1 | 0
C=CC(=O)Nc1cccc(-n2c(=O)cnc3cnc(Nc4ccc(N5CCN(C)CC5)cc4OC)nc32)c1 | 1
C=CC(=O)Nc1cccc(-n2c(=O)cnc3cnc(Nc4ccc(Cl)cc4)nc32)c1 | 1
C=CC(=O)Nc1ccc(-n2c(=O)c(C)nc3cnc(Nc4ccc(OC)cc4)nc32)cc1 | 0
C=CC(=O)Nc1cccc(-n2c(=O)cnc3cnc(Nc4ccc(NC(C)=O)cc4)nc32)c1 | 1
COc1ccc(Nc2ncc3ncc(=O)n(-c4ccc(NC(=O)/C=C/CN(C)C)cc4)c3n2)cc1 | 1
COc1ccc(-n2c(=O)cnc3cnc(Nc4cccc(N)c4)nc32)cc1 | 0
C=CC(=O)Nc1cccc(-n2c(=O)cnc3cnc(Nc4ccc(OC)cc4)nc32)c1 | 1

A record lists C=CC(=O)Nc1cccc(-n2c(=O)cnc3cnc(Nc4ccc(N5CCOCC5)cc4)nc32)c1 . Is its IC50 below 0.06 µM?
1

Also C=CC(=O)Nc1ccc(-n2c(=O)cnc3cnc(Nc4ccc(N5CCN(C)CC5)cc4)nc32)cc1 , if possible.
0

Further, for C=CC(=O)Nc1cccc(-n2c(=O)cnc3cnc(Nc4ccc(N(CC)CC)cc4)nc32)c1 ?
1
